assay: Pharmacokinetics in SD rats, single dose intragastric and intravenous; format: in vivo; conditions: male, rat, plasma, intravenous injection, 3 mg/kg, read-out: Area under the drug-time curve AUC0-t
Readout: AUC(0-t) (ng·h/mL)
Unit ng·h/mL implied. Number only.

## Input Specify reported AUC(0-t) for the compound shown: `COc1cccc2c3c(oc12)CN(CC[C@H]1CC[C@H](NC(=O)N(C)C)CC1)CC3`
## Output 1100

## Input Note down AUC(0-t) recorded for `COc1cccc2c1cc1n2CCN(CCCCOc2ccc3ccc(=O)[nH]c3c2)C1`
## Output 4970

## Input Indicate the recorded AUC(0-t) value for this compound: `COc1cccc2c1cc1n2CCN(CCCCOc2ccc3c(c2)NC(=O)CC3)C1`
## Output 2790

## Input Return value of AUC(0-t) for input `COc1cccc2c3c([nH]c12)CN(CC[C@H]1CC[C@H](NC(=O)N(C)C)CC1)CC3` , no commentary.
## Output 2350

---

I'd be grateful if you could share measured Emax for these entries.
target: dopamine D2 receptors (Homo sapiens (Human)); assay: Dopamine D2 receptor β-arrestin2 BRET (recruitment); type: cell-based; settings: relative to endogenous ligand dopamine, read-out: β-arrestin2 BRET Emax % ± SEM
Reply numerically in %, unit not repeated.

## Input // Input: `CCOc1cccc2c3c(oc12)CN(CCCCN1C(=O)CC2(CCCC2)CC1=O)CC3` . Output its Emax only.
## Output 31

## Input For the compound `CCOc1cccc2c3c(oc12)CN(CCNC(=O)C1CCCC1)CC3` , give its reported Emax.
## Output 18

## Input Using known records, supply Emax for `COc1cccc2c3c(oc12)CN(CCCCn1ncc(=O)n(C)c1=O)CC3`
## Output 89

## Input Consider the compound `COc1cccc2c1nc1n2CCN(CCCOc2ccc3c(c2)NC(=O)CC3)C1` and give its recorded Emax.
## Output 89

## Input Quickly give me recorded Emax for `CCOc1cccc2c3c(oc12)CN(CCCCOc1ccc2ccc(=O)[nH]c2n1)CC3`
## Output 47

## Input For the compound `COc1cccc2c3c([nH]c12)CN(CCCCOc1ccc2ccc(=O)[nH]c2c1)CC3` , give its reported Emax.
## Output 50

## Input Name the recorded Emax of the compound listed here: `CCOc1cccc2c3c(oc12)CN(CCCCN1C(=O)CC(C)(C)CC1=O)CC3`
## Output 30

## Input Give the measured Emax for `CCOc1cccc2c3c(oc12)CN(CCCn1ncc(=O)n(C)c1=O)CC3`
## Output 21

## Input Give a short answer stating reported Emax for `COc1cccc2c3c(oc12)CN(CCCOc1ccc2ccc(=O)[nH]c2c1)CC3` .
## Output 103

---

target: dopamine D2 receptors (Homo sapiens (Human), UniProt P14416); test: Dopamine D2 receptor Gαi1 BRET (G protein trimer dissociation); assay type: cell-based; settings: read-out: Gαi1 BRET pEC50 ± SEM (converted)
Sequence (P14416 whole entry): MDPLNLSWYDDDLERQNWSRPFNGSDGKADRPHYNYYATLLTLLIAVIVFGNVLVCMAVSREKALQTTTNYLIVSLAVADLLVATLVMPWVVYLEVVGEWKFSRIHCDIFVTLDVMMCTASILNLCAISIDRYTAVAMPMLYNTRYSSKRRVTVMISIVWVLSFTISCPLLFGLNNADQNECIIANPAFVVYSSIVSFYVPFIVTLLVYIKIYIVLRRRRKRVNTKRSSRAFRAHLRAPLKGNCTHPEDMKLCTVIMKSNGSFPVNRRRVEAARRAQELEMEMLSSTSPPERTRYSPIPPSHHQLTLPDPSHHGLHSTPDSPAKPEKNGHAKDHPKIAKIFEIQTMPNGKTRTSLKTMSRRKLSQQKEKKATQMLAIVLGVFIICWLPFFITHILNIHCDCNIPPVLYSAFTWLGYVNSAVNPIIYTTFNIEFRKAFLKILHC
Can you tell me EC50 for the items I'm about to list?
Supply the numeric figure in nM, leaving out any unit text.

## Input Report measured EC50 on dopamine D2 receptors (Homo sapiens (Human), UniProt P14416); entry: `COc1cccc2c1cc1n2CCN(CCCCOc2ccc3ccc(=O)[nH]c3c2)C1`
## Output 6.31

## Input // output EC50; input `COc1cccc2c3c([nH]c12)CN(CC[C@H]1CC[C@H](NC(=O)N(C)C)CC1)CC3` ; system dopamine D2 receptors (Homo sapiens (Human), UniProt P14416)
## Output 11.2

## Input Tell me its EC50 on dopamine D2 receptors (Homo sapiens (Human), UniProt P14416): `CCOc1cccc2c3c(oc12)CN(CC[C@H]1CC[C@H](NC(=O)N(C)C)CC1)CC3`
## Output 3.67

## Input Enter EC50 (test system dopamine D2 receptors (Homo sapiens (Human), UniProt P14416)) for `COc1cccc2c3c(oc12)CN(CC[C@H]1CC[C@H](NS(C)(=O)=O)CC1)CC3`
## Output 38.9

## Input GET EC50 | system: dopamine D2 receptors (Homo sapiens (Human), UniProt P14416) | item: `CCOc1cccc2c3c(oc12)CN(CC1(O)CCCCC1)CC3`
## Output 44.7

## Input Using dopamine D2 receptors (Homo sapiens (Human), UniProt P14416) as the test system, report measured EC50 of `COc1cccc2c1nc1n2CCN(C/C=C/COc2ccc3c(c2)NC(=O)CC3)C1` .
## Output 162

## Input Report EC50 from dopamine D2 receptors (Homo sapiens (Human), UniProt P14416) testing of COc1cccc2c1nc1n2CCN(CCCCOc2ccc3ccc(=O)[nH]c3c2)C1 [I-D1]
## Output 263

## Input Fill in: EC50 on dopamine D2 receptors (Homo sapiens (Human), UniProt P14416), entry `COc1cccc2c1cc1n2CCN(C/C=C/COc2ccc3ccc(=O)[nH]c3c2)C1`
## Output 97.7

## Input Give EC50; test system dopamine D2 receptors (Homo sapiens (Human), UniProt P14416); compound `COc1cccc2c1cc1n2CCN(CC2(O)CCCCC2)C1`
## Output 38.9

## Input Write EC50 of `CCOc1cccc2c1cc1n2CCN(CCCCOc2ccc3ccc(=O)[nH]c3c2)C1` ; system used: dopamine D2 receptors (Homo sapiens (Human), UniProt P14416)
## Output 120

## Input Answer briefly: EC50 recorded on dopamine D2 receptors (Homo sapiens (Human), UniProt P14416) for `COc1cccc2c3c(oc12)CN(CC1(O)CCCCC1)CC3`
## Output 2.95

## Input Return reported EC50 for target or system dopamine D2 receptors (Homo sapiens (Human), UniProt P14416), item COc1cccc2c1nc1n2CCN(CCCCOc2ccc3c(c2)NC(=O)CC3)C1 [I-D2] .
## Output 324

## Input Look up dopamine D2 receptors (Homo sapiens (Human), UniProt P14416) data: EC50 of `COc1cccc2c3c([nH]c12)CN(CCCOc1ccc2ccc(=O)[nH]c2c1)CC3` , then report it.
## Output 13.2

## Input State EC50 on dopamine D2 receptors (Homo sapiens (Human), UniProt P14416). Entry: `CC(C)Oc1cccc2c3c(oc12)CN(CC[C@H]1CC[C@H](NC(=O)N(C)C)CC1)CC3`
## Output 10.7

## Input Report EC50 under test system dopamine D2 receptors (Homo sapiens (Human), UniProt P14416) for `COc1cccc2c3c(oc12)CN(CCCCOc1ccc2ccc(=O)[nH]c2c1)CC3` .
## Output 23.4

## Input Report value: EC50, system: dopamine D2 receptors (Homo sapiens (Human), UniProt P14416), compound: `CCOc1cccc2c3c(oc12)CN(CCCCc1ccc2ccc(=O)[nH]c2c1)CC3`
## Output 2.04

## Input Write down measured EC50 (dopamine D2 receptors (Homo sapiens (Human), UniProt P14416)) for this compound. `COc1cccc2c1nc1n2CCN(CC2(O)CCCCC2)C1`
## Output 95.5

## Input Provide the reported EC50 (system: dopamine D2 receptors (Homo sapiens (Human), UniProt P14416)) for `COc1cccc2c1cc1n2CCN(CCCCOc2ccc3c(c2)NC(=O)CC3)C1`
## Output 44.7

## Input Under dopamine D2 receptors (Homo sapiens (Human), UniProt P14416): report EC50 of `COc1cccc2c3c([nH]c12)CN(CCCCOc1ccc2ccc(=O)[nH]c2c1)CC3` .
## Output 102

## Input Provide dopamine D2 receptors (Homo sapiens (Human), UniProt P14416) EC50 reading for `COc1cccc2c3c([nH]c12)CN(CC1(O)CCCCC1)CC3` .
## Output 61.7
